The values you see were collected from ChEMBL document CHEMBL1201862.

- Tested on: Zinc finger protein mex-5 (Caenorhabditis elegans)
- Sequence (Q9XUB2 whole entry): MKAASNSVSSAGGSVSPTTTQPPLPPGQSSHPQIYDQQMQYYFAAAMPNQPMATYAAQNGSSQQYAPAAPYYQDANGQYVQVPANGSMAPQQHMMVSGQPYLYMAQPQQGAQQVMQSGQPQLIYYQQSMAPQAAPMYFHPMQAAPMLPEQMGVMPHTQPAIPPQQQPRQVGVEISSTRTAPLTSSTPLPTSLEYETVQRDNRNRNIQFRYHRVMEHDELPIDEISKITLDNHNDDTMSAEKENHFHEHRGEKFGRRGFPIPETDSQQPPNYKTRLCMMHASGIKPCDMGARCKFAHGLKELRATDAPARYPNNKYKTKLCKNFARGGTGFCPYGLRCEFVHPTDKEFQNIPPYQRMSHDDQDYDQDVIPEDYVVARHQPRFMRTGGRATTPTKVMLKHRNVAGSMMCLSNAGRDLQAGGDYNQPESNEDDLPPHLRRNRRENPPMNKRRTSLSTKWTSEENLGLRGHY
- Test details: potency of MEX-5 RNA-binding blockers – biochemical, C. elegans, fluorescence polarization, dose response (AID 1960)
Active and inactive are the calls of the source. Cut-off read from the data, not from the text of the source: actives have a measured EC50 and inactives only a lower limit.
Attribute measured: EC50

1. ON=C1/C(=N\O)CC2(C/C1=N/O)OCCO2    13 µM (active)
2. Cc1cccn2c(=O)c3cc(C(=O)NCC4CCCO4)c(=N)n(CCc4ccccc4)c3nc12 (stereo unspecified)    7.9 µM (inconclusive)
3. Cc1nc2ccc(N3CCN(C)CC3)cc2nc1C    > 300 µM (not active)
4. Nc1ccc2c(c1)-c1ccccc1S(=O)(=O)N2    12.2 µM (active)
5. COc1ccc(C2=CC3=C(Br)C(=O)C(C)(OC(=O)c4ccc(Cl)nc4)C(=O)C3=CO2)cc1 (stereo unspecified)    > 300 µM (not active)
6. CCC(=O)OC1(C)C(=O)C=C2C=C(C3CC3)OC=C2C1=O (stereo unspecified)    30.4 µM (active)
7. O=C1NC(=O)N(c2ccccc2)C(=O)/C1=C\c1ccc2c3c(cccc13)CC2    > 300 µM (not active)
8. CCCCOC(=O)CSC1=C(C#N)C(c2ccccc2OCC)C(C#N)C(=O)N1 (stereo unspecified)    > 300 µM (inconclusive)
9. CC1(C)CC(=O)C2=C(C1)OC(N)=C(C#N)C2c1ccccc1OC(=O)N1CCOCC1 (stereo unspecified)    > 300 µM (not active)
10. COC(=O)c1c(C(=O)OC)c2n(c1C)Cc1ccccc1C2    43.7 µM (active)
11. CC(=O)c1cc(NC(=O)c2ccc(Cl)cc2)c(=O)oc1/C=C/N(C)C    4.07 µM (active)
